testedSystem: pERK1/2 (Thr202/Tyr204), PANC-1 (KRAS G121D) (Homo sapiens, UniProt P01116, G12D)
Construct: pERK1/2 HTRF read-out
Sequence (P01116 1-188 isoform P01116-2 G12D): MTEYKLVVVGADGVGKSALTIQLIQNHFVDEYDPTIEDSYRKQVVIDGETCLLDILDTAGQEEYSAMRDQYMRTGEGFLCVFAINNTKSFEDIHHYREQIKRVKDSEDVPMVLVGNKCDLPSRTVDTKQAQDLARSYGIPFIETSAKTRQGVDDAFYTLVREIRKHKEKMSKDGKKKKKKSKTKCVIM
protocolDetails: Assay of intracellular pERK1/2 (Thr202/Tyr204) phosphorylation in PANC-1 cells (KRAS G12D)
Assay type: cell-based
measurementConditions: pERK1/2, 2 days, read-out: PANC-1 (KRAS G12D) IC50
readout: IC50 (nM)

I. CCc1c(F)ccc2cc(O)cc(-c3nc4c5c(nc(OC[C@@]67CCCN6C[C@H](F)C7)nc5c3F)N(C(C)c3cccnc3N)[C@@H](C)CO4)c12 (single isomer, unassigned) [Compound 280]
II. Cc1c(C(F)(F)F)c(-c2nc3c4c(nc(OC[C@@]56CCCN5C[C@H](F)C6)nc4c2F)N(C(C)c2cc(F)cnc2N)[C@@H](C)CO3)c2cn[nH]c2c1F (some centres unmarked) [Compound 368]
Ask | For the two items I and II , which reports the higher IC50 value? // caller expects the label of the chosen entry
Reply | I

From: patent US20260356851A1
